Origin of measurements: ChEMBL document CHEMBL1146649

Tested on: PC-6
protocol.notes: Concentration required to inhibit human PC-6/VP1-1 cell line growth by 50% at 72 hr exposure
Type: functional
experimental.setup: PC-6, 72 h
The entries below come with measured GI50 values attached.

[[record]]
smiles_string = "CC(=O)O[C@@]12CO[C@@H]1CC[C@@]1(C)[C@@H]3O[C@H](CN4CCOCC4)O[C@@H]3C3=C(C)[C@@H](OC(=O)[C@H](O)[C@@H](NC(=O)OC(C)(C)C)c4cncs4)C[C@@](O)([C@@H](OCc4ccccc4)[C@@H]12)C3(C)C"
target_entity = "PC-6"
recorded_endpoint = "GI50"
result = "0.0205 µg/mL"

[[record]]
smiles_string = "CC(=O)O[C@@]12CO[C@@H]1CC[C@@]1(C)[C@@H]3O[C@H](CN(C)C)O[C@@H]3C3=C(C)[C@@H](OC(=O)[C@H](O)[C@@H](NC(=O)OC(C)(C)C)c4cscn4)C[C@@](O)([C@@H](OCc4ccccc4)[C@@H]12)C3(C)C"
target_entity = "PC-6"
recorded_endpoint = "GI50"
result = "0.0173 µg/mL"

[[record]]
smiles_string = "CC(=O)O[C@@]12CO[C@@H]1CC[C@@]1(C)[C@@H]3O[C@H](CN(C)C)O[C@@H]3C3=C(C)[C@@H](OC(=O)[C@H](O)[C@@H](NC(=O)OC(C)(C)C)C(C)(C)C)C[C@@](O)([C@@H](OCc4ccccc4)[C@@H]12)C3(C)C"
target_entity = "PC-6"
recorded_endpoint = "GI50"
result = "0.0157 µg/mL"


Could you now look at the following molecule, please?
Query block: Look at this molecule and give its reported GI50. CC(=O)O[C@@]12CO[C@@H]1CC[C@@]1(C)[C@@H]3O[C@H](CN(C)C)O[C@@H]3C3=C(C)[C@@H](OC(=O)[C@H](O)[C@@H](NC(=O)OC(C)(C)C)c4cccc(F)n4)C[C@@](O)([C@@H](OCc4ccccc4)[C@@H]12)C3(C)C
Result block: 0.0213 µg/mL
